FYI, the data here is from PubChem BioAssay AID1159580.

Below: a set of entries, each annotated with reported normalized growth.
assay: chemical genetic growth profiling, strain panel (AID 1159580);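 also: tested at 20 µM; growth read once vehicle control cultures reached saturation at 30 °C; 1 = growth at the plate median or of vehicle wells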; conditions: S. cerevisiae deletion strains, growth OD, locus YGL078C, strain dbp3, stronger effect = lower value
About 2,000 (36%) of roughly 5,500 compounds were called active. About 18% were inconclusive and are not listed. Some of the results follow.
Number only, please.

Example compounds with recorded normalized growth:
compound	normalized growth
CC(=O)OC1CC(O)C(C)(C)C2CC(=O)C3(C)C(CCC4(C)C(c5ccoc5)OC(=O)C5OC543)C12C (stereo not given)	0.968
COc1ccc2c(=O)c(OC)c(-c3ccccc3)oc2c1	0.939
O=C(O)COc1ccc(Cl)cc1Cl	1.02
COc1ccc2oc(-c3ccccc3)c(OC)c(=O)c2c1	0.956

Then this compound:
Asked: Sample NC(=O)NC1NC(=O)NC1=O (stereo not given) — what was its normalized growth?
Given back: 0.989

----------
assay: chemical genetic growth profiling, strain panel (AID 1159580);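 also: tested at 20 µM; growth read once vehicle control cultures reached saturation at 30 °C; 1 = growth at the plate median or of vehicle wells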; conditions: S. cerevisiae deletion strains, growth OD, locus YOR001W, strain rrp6
Hit rate of the full screen: of about 5,500 compounds, about 2,000 (36%) were called active. Roughly 18% stayed inconclusive and do not appear here. No stated cut-off is given here; in the data, active means normalized growth mostly below about 0.91 (no sharp cut-off); inconclusive means no clear call, values can overlap the other calls; inactive means mostly above about 0.92. Some of the results follow.
Outcomes you can answer with include only these: active, inactive

Before answering, review these 6 worked examples.
molecule	qualitative_label
O=c1[nH]c(=O)n(C2C[C@H](O)[C@@H](CO)O2)cc1C(F)(F)F (stereo not given in full)	inactive
C[C@@H]1CC[C@H]2C(C)(C)C3CC12CC[C@@]3(C)O (stereo not given in full)	active
CN(C)C(=O)Oc1ccc[n+](C)c1	inactive
CC(=O)O[C@]1(C)CC[C@@]23CC1C(C)(C)[C@@H]2CC[C@H]3C	inactive
COP(=S)(OC)Oc1ccc(Sc2ccc(OP(=S)(OC)OC)cc2)cc1	inactive
NC(N)=NCCCCN=C(N)N	inactive

Asked: For this molecule, state the assay outcome: O=c1cccc2n1CC1CC2CN2CCCC[C@@H]12 (stereo not given in full)
Given back: inactive

Asked: For this molecule, state the assay outcome: `NC(N)=NCCN1CCCCCCC1`
Given back: inactive

Asked: For this molecule, state the assay outcome: `O=c1oc2ccccc2cc1O`
Given back: inactive

Asked: For this molecule, state the assay outcome: `COP(=S)(OC)Oc1ccc([N+](=O)[O-])cc1`
Given back: inactive

----------
test: chemical genetic growth profiling, strain panel (AID 1159580);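 also: tested at 20 µM; growth read once vehicle control cultures reached saturation at 30 °C; 1 = growth at the plate median or of vehicle wells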; conditions: S. cerevisiae deletion strains, growth OD, locus YNL307C, strain MCK1 (second series)
About 2,000 (36%) of roughly 5,500 compounds were called active. Not shown: some 18% with an inconclusive outcome. Rule as the data show it: active = normalized growth mostly below about 0.91 (no sharp cut-off); inconclusive = no clear call, values can overlap the other calls; inactive = mostly above about 0.92. The list shows a part of the results.
Outcomes you can answer with include only these: active, inactive

Before answering, review these 5 worked examples.
molecule	qualitative_label
O=C(Nc1cc(Cl)ccc1O)c1ccccc1CSc1ccc(Cl)cc1	active
COc1ccc(-c2cn3cc(C)ccc3n2)cc1	inactive
O=C(NNc1ccccc1)c1cc(-c2ccc(Cl)cc2)oc1C(F)(F)F	active
Cc1noc(C)c1S(=O)(=O)Nc1csc(C(F)(F)F)c1-c1ccccc1	inactive
N#CC(C#N)=Cc1c(-c2ccccc2Cl)[nH]c2ccccc12	inactive

Field: next molecule
Asked: For this molecule, state the assay outcome: `O=C(Nc1cc(C(F)(F)F)cc(C(F)(F)F)c1)C(Cl)(Cl)Cl`
Given back: inactive

----------
assay: chemical genetic growth profiling, strain panel (AID 1159580);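 also: tested at 20 µM; growth read once vehicle control cultures reached saturation at 30 °C; 1 = growth at the plate median or of vehicle wells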; conditions: S. cerevisiae deletion strains, growth OD, locus YBR009C, strain hhf1
Screen size: about 5,500 compounds; about 2,000 (36%) were called active. Inconclusive results (about 18%) are left out. Rule as the data show it: active = normalized growth mostly below about 0.91 (no sharp cut-off); inconclusive = no clear call, values can overlap the other calls; inactive = mostly above about 0.92. Some of the results follow.
Outcomes you can answer with include only these: active, inactive

Before answering, review these 5 worked examples.
compound	qualitative_label
CC1OC(O[C@H]2/C=C/C=C/C=C/C=C/C=C/C=C/C=C/[C@H](C)[C@@H](O)[C@@H](C)[C@H](C)OC(=O)CC(O)CC(O)CCC(O)C(O)CC(O)C[C@]3(O)C[C@H](O)C(C(=O)O)C(C2)O3)C(O)[C@H](N)C1O (some centres not stated)	inactive
O=C(O)CCC1NCC2CC1CN1CCCCC21 (configuration not stated)	inactive
Fc1ccc([C@@H]2CCNC[C@H]2COc2ccc3c(c2)OCO3)cc1	inactive
CC1C/C=C/C=C/C=C/C=C/C(O[C@@H]2O[C@H](C)[C@@H](O)[C@H](N)[C@@H]2O)CC2OC(O)(CC(O)CC3OC3/C=C/C(=O)O1)CC(O)C2C(=O)O (some centres not stated)	inactive
COC(=O)[C@@H]1OC(=O)C2OC23[C@@]1(C)CCC1[C@]2(C)C(C[C@@H](O)[C@]13C)C(C)(C)[C@H](OC(C)=O)C[C@@H]2OC(C)=O (some centres not stated)	inactive

Asked: For this compound, state the assay outcome: O=c1[nH]c(=O)n(C2C[C@H](O)[C@@H](CO)O2)cc1C(F)(F)F (some centres not stated)
Given back: inactive

Asked: For this compound, state the assay outcome: CC1[C@H](C)OC(=O)CC(O)CC(O)CC(O)CCC(O)C(O)C[C@]2(O)CC(O)C(C(=O)O)C(CC(OC3O[C@H](C)[C@@H](O)[C@H](N)[C@@H]3O)/C=C/C=C/C=C/C=C/CC/C=C/C=C/[C@H](C)[C@H]1O)O2 (some centres not stated)
Given back: active
